target: cdk2/cyclin E (Homo sapiens); experiment: Cyclin-dependent kinase assay, cdk2/cyclin E; details: CDK2 IC50, nM, GST-pRb substrate, 10 µM ATP
Counter-ions that a name gives are not always drawn.
measured_parameter: IC50 (nM)
One number for each entry, in nM.

Completed entries (count: 2):
CC(C)(C)NC(=O)N1CCC(Nc2nc(N[C@H]3CC[C@H](N)CC3)nc3c2ncn3C2CCCC2)CC1 [compound 192, dihydrochloride]    237
CN(C)c1cccc2c(S(=O)(=O)N3CCC(Nc4nc(N[C@H]5CC[C@H](N)CC5)nc5c4ncn5C4CCCC4)CC3)cccc12 [compound 141, dihydrochloride]    61

Each compound below has a reported value. Please supply its IC50.
1. COC(=O)c1ccccc1NC(=O)N1CCC(Nc2nc(N[C@H]3CC[C@H](N)CC3)nc3c2ncn3C2CCCC2)CC1 [compound 193, dihydrochloride]
2. COc1ccc(S(=O)(=O)N2CCC(Nc3nc(N[C@H]4CC[C@H](N)CC4)nc4c3ncn4C3CCCC3)CC2)cc1OC [compound 137, dihydrochloride]

[8, 7]

Each compound below has a reported value. Please supply its IC50.
1. C[C@H](NC(=O)N1CCC(Nc2nc(N[C@H]3CC[C@H](N)CC3)nc3c2ncn3C2CCCC2)CC1)c1ccccc1 [compound 161, dihydrochloride]
2. N[C@H]1CC[C@H](Nc2nc(NC3CCN(C(=O)COc4ccc(Cl)cc4)CC3)c3ncn(C4CCCC4)c3n2)CC1 [compound 31, dihydrochloride]
3. CC1(C)C2CCC1(CS(=O)(=O)N1CCC(Nc3nc(N[C@H]4CC[C@H](N)CC4)nc4c3ncn4C3CCCC3)CC1)C(=O)C2 (stereo partly drawn) [compound 107, dihydrochloride]
4. Cl.Cl.N[C@H]1CC[C@H](Nc2nc(NC3CCN(S(=O)(=O)c4ccc(F)cc4)CC3)c3ncn(C4CCCC4)c3n2)CC1 [compound 106, dihydrochloride]
5. N[C@H]1CC[C@H](Nc2nc(NC3CCN(S(=O)(=O)c4ccc(OC(F)(F)F)cc4)CC3)c3ncn(C4CCCC4)c3n2)CC1 [compound 134, dihydrochloride]

78
5
35
8
35

###

target: cdk2/cyclin E (Homo sapiens); assay: Cyclin-dependent kinase assay, cdk2/cyclin E; settings: CDK2 IC50, nM, GST-pRb substrate, 10 µM ATP
Structures can show the parent of a compound that is named as a salt.
Class boundaries, taken from values of IC50, are as follows: Low = under 40 nM, Mid = from 40 nM up to 80 nM, High = 80 nM and over

N[C@H]1CC[C@H](Nc2nc(NC3CCN(C(=O)OCc4ccc([N+](=O)[O-])cc4)CC3)c3ncn(C4CCCC4)c3n2)CC1 [compound 94, dihydrochloride]    Mid

Which IC50 band matches N[C@H]1CC[C@H](Nc2nc(NC3CCN(C(=O)Nc4ccc(Cl)c(Cl)c4)CC3)c3ncn(C4CCCC4)c3n2)CC1 [compound 209, dihydrochloride] ? Low

Which IC50 band matches CCCCOC(=O)N1CCC(Nc2nc(N[C@H]3CC[C@H](N)CC3)nc3c2ncn3C2CCCC2)CC1 [compound 92, dihydrochloride] ? Low

Which IC50 band matches N[C@H]1CC[C@H](Nc2nc(NC3CCN(C(=O)Nc4cccc(F)c4)CC3)c3ncn(C4CCCC4)c3n2)CC1 [compound 152, dihydrochloride] ? Mid

###

experiment: Bioavailability experiment in mice given single intravenous cassette doses; conditions: Cassette #1, single 18 mg/kg intravenous cassette dose, mice, 24 h; BLQ = below assay quantification limit
measured_parameter: Conc. (ng/ml) in plasma

Cl.Cl.N[C@H]1CC[C@H](Nc2nc(NC3CCN(C(=O)c4cccc(C(F)(F)F)c4F)CC3)c3ncn(C4CCCC4)c3n2)CC1    BLQ
COC(=O)c1ccccc1S(=O)(=O)N1CCC(Nc2nc(N[C@H]3CC[C@H](N)CC3)nc3c2ncn3C2CCCC2)CC1.Cl.Cl    BLQ
Cl.Cl.N#Cc1ccc(S(=O)(=O)N2CCC(Nc3nc(N[C@H]4CC[C@H](N)CC4)nc4c3ncn4C3CCCC3)CC2)cc1    BLQ
Cl.Cl.N[C@H]1CC[C@H](Nc2nc(NC3CCN(C(=O)Oc4ccccc4)CC3)c3ncn(C4CCCC4)c3n2)CC1    BLQ

Specify Conc. (ng/ml) in plasma for COC(=O)c1ccc(OC(=O)N2CCC(Nc3nc(N[C@H]4CC[C@H](N)CC4)nc4c3ncn4C3CCCC3)CC2)cc1.Cl.Cl and stop. BLQ

###

test: in vivo; settings: male, Hsd:ICR (CD-1), mouse, plasma, iv, 3 mg/kg
measured_parameter: AUC(0-inf) (ng·h/mL)
Answers are plain numbers, in ng·h/mL.

Completed entries (count: 2):
CCOC(=O)c1ccc(NC(=O)N2CCC(Nc3nc(N[C@H]4CC[C@H](N)CC4)nc4c3ncn4C3CCCC3)CC2)cc1.Cl.Cl    1580
Cl.Cl.N[C@H]1CC[C@H](Nc2nc(NC3CCN(C(=O)Oc4ccccc4)CC3)c3ncn(C4CCCC4)c3n2)CC1    467

Turning to the following molecule.
Specify AUC(0-inf) for Cl.Cl.N[C@H]1CC[C@H](Nc2nc(NC3CCN(C(=O)Oc4ccc(Br)cc4)CC3)c3ncn(C4CCCC4)c3n2)CC1 and stop. 660

###

I'd appreciate it if you could supply AUC(0-inf) values for the items below.
assay: in vivo; conditions: male, Hsd:ICR (CD-1), mouse, plasma, iv, 3 mg/kg

Completed entries (count: 2):
Cl.Cl.N[C@H]1CC[C@H](Nc2nc(NC3CCN(C(=O)Oc4ccc(Cl)cc4)CC3)c3ncn(C4CCCC4)c3n2)CC1 [compound 88]    642 ng·h/mL
Cl.Cl.N#Cc1ccc(S(=O)(=O)N2CCC(Nc3nc(N[C@H]4CC[C@H](N)CC4)nc4c3ncn4C3CCCC3)CC2)cc1 [compound 109]    1110 ng·h/mL

Turning to the following compound.
Specify AUC(0-inf) for Cl.Cl.N[C@H]1CC[C@H](Nc2nc(NC3CCN(S(=O)(=O)c4ccc(F)cc4)CC3)c3ncn(C4CCCC4)c3n2)CC1 [compound 106] and stop. 440 ng·h/mL

###

target: cdk2/cyclin E (Homo sapiens); test: Cyclin-dependent kinase assay, cdk2/cyclin E; conditions: CDK2 IC50, nM, GST-pRb substrate, 10 µM ATP
Where a name gives a salt, the structure may show the parent alone.
measured_parameter: IC50
Write down the value, and be sure its unit follows.

Completed entries (count: 2):
N[C@H]1CC[C@H](Nc2nc(NC3CCN(C(=O)Nc4cc(Cl)cc(Cl)c4)CC3)c3ncn(C4CCCC4)c3n2)CC1 [compound 182, dihydrochloride]    174 nM
CC(C)(C)c1ccc(S(=O)(=O)N2CCC(Nc3nc(N[C@H]4CC[C@H](N)CC4)nc4c3ncn4C3CCCC3)CC2)cc1 [compound 130, dihydrochloride]    53 nM

Turning to the following compound.
Specify IC50 for Cc1ccc(OC(=O)N2CCC(Nc3nc(N[C@H]4CC[C@H](N)CC4)nc4c3ncn4C3CCCC3)CC2)cc1.Cl.Cl [compound 82, dihydrochloride] and stop. 45 nM

###

biological target: cdk2/cyclin E (Homo sapiens, UniProt P24941); assay: Cyclin-dependent kinase assay, cdk2/cyclin E; conditions: CDK2 IC50, nM, GST-pRb substrate, 10 µM ATP
Structures can show the parent of a compound that is named as a salt.
IC50 strictly less than 40 nM = True. Otherwise False.

Please determine if CC(C)C(=O)N1CCC(Nc2nc(N[C@H]3CC[C@H](N)CC3)nc3c2ncn3C2CCCC2)CC1 [compound 59, dihydrochloride] is below 40 nM in terms of IC50. False

###

system: Colo-205; assay: In vitro proliferation assay (MTT), Colo-205; assay type: cell-based; conditions: Homo sapiens, COLO 205; MTT assay; value (SD, n) where given; read-out: Colo-205 Colon (IC50 µM)
Where a name gives a salt, the structure may show the parent alone.
measured_parameter: IC50 (µM)
One number for each entry, in µM.

Each compound below has a reported value. Please supply its IC50.
1. CCCCOC(=O)N1CCC(Nc2nc(N[C@H]3CC[C@H](N)CC3)nc3c2ncn3C2CCCC2)CC1 [compound 92, dihydrochloride]
2. N[C@H]1CC[C@H](Nc2nc(NC3CCN(C(=O)Nc4ccccc4Cl)CC3)c3ncn(C4CCCC4)c3n2)CC1 [compound 169, dihydrochloride]

1: 0.2; 2: 0.09

###

experiment: Bioavailability experiment in mice given single intravenous cassette doses; settings: mice plasma, single intravenous cassette dose, 3 mg/kg/compound (15 mg/kg Total Dose), Cassette #3
measured_parameter: Cls (mL/min/kg)
One number for each entry, in mL/min/kg.

Each compound below has a reported value. Please supply its Cls.
1. Cl.Cl.N[C@H]1CC[C@H](Nc2nc(NC3CCN(C(=O)Oc4ccc(Cl)cc4)CC3)c3ncn(C4CCCC4)c3n2)CC1
2. Cl.Cl.N[C@H]1CC[C@H](Nc2nc(NC3CCN(C(=O)Nc4ccc(C(F)(F)F)cc4)CC3)c3ncn(C4CCCC4)c3n2)CC1
3. Cl.Cl.N[C@H]1CC[C@H](Nc2nc(NC3CCN(S(=O)(=O)c4cccc(C(F)(F)F)c4)CC3)c3ncn(C4CCCC4)c3n2)CC1

77.9
49.1
34.2

Specify Cls for Cl.Cl.N[C@H]1CC[C@H](Nc2nc(NC3CCN(C(=O)Oc4ccc(F)cc4)CC3)c3ncn(C4CCCC4)c3n2)CC1 and stop. 97.4
